These measurements were taken from paper PMC8301817.

System: T1, Tbar-aLhr2 WT (Thermococcus barophilus, UniProt F0LJX3 1-863)
T1 sequence: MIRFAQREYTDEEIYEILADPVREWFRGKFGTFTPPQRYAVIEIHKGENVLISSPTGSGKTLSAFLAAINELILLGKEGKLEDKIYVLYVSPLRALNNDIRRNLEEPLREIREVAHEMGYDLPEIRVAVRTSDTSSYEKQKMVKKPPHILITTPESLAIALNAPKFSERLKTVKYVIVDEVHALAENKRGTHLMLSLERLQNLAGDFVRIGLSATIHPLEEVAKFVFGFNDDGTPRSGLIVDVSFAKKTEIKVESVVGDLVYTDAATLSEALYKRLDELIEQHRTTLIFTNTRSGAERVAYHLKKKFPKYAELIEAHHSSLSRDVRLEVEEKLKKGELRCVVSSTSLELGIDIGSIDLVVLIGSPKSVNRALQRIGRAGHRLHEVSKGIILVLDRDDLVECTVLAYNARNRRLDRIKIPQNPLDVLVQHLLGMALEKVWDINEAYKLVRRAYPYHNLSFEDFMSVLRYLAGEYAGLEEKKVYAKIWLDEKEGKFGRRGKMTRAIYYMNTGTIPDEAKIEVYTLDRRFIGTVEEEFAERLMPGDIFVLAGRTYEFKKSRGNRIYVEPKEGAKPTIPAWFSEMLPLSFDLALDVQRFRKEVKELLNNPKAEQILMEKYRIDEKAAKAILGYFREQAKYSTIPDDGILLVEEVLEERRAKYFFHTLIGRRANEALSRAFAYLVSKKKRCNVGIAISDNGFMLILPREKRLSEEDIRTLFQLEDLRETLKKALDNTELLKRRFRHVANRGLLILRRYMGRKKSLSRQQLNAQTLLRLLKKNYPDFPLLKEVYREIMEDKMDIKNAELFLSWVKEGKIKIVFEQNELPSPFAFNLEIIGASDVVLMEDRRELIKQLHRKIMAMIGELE
Experiment summary: filter binding; 5 mM Mg2+; 25 mM Tris-HCl pH 8, 50 mM NaAc, 5 mM MgCl2, 2.5 mM beta-mercaptoethanol; protein preincubated 10 min 65 C, binding 15 min 30 C; 0.5 nM substrate (Methods); Resu
Condition description: protein: recombinant; tags: untagged; chain copies: 4; label: 5'-32P on RNA26; 3' overhang 24 nt
pKd: −log10 of the molar value.
Readout kind: pKd

{"Binder": "3'RNA50:RNA26 (dsRNA) RNA 1: AUCGAUAGUCUCUAGACAGCAUGUCCUAGCAAGCCAGAAUUCGGCAGCGU RNA 2: GGACAUGCUGUCUAGAGACUAUCGAU", "Readout kind": "pKd", "Data value": 7.41}
